TEST TARGET: T1, human β2-appendage (700–937), side site mutant used for ITC (human, UniProt P63010 700-937)
T1 chain: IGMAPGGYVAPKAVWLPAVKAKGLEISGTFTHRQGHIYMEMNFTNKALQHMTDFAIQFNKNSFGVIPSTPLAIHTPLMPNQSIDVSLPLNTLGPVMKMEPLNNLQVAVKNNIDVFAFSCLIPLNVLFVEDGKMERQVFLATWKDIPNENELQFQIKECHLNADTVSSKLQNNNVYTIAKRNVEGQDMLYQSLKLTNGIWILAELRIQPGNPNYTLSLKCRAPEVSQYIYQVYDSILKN
ASSAY TEXT: ITC
METRIC NAME: pKd
Scale explanation: pKd corresponds to minus log10 of a concentration expressed in moles per litre.

-- ask Field request: pKd | item: DDDIVFEDFARQRLKGMKDD [β-arrestin P-long peptide]
-- reply 5.77
